Study Target: wild type PRC2 (wtPRC2) complex (Homo sapiens (Human))
Sequence (O75530 whole entry): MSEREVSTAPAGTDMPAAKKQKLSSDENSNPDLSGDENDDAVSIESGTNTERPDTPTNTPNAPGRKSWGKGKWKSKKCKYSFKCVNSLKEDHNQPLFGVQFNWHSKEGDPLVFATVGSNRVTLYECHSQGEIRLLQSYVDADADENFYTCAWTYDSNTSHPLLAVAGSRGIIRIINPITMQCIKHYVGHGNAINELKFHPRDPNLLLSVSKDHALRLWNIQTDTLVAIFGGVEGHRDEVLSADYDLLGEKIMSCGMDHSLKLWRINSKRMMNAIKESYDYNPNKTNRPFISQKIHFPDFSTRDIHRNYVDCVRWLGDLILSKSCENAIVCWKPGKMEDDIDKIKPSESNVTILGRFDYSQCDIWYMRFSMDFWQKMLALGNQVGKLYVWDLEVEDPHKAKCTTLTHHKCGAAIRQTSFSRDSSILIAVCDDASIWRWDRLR
Sequence (Q15910 whole entry partner): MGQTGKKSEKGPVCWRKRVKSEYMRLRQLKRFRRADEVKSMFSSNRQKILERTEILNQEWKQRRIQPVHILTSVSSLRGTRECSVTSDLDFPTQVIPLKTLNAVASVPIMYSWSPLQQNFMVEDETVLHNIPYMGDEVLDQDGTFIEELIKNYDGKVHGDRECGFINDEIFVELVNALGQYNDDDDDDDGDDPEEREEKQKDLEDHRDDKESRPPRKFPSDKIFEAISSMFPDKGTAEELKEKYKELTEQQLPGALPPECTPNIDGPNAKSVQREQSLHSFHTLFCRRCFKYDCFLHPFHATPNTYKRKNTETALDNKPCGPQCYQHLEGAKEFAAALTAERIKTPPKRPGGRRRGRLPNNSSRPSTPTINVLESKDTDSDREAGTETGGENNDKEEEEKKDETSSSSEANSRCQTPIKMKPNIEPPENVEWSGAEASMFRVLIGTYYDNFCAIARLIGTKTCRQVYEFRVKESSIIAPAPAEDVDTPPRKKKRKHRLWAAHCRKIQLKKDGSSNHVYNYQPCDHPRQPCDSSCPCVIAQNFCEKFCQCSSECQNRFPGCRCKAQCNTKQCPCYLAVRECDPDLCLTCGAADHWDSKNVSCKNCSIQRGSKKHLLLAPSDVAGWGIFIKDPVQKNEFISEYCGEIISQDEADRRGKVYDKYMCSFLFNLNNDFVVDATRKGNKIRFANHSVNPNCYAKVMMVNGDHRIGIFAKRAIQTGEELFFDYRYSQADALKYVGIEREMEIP
Sequence (Q15022 whole entry partner): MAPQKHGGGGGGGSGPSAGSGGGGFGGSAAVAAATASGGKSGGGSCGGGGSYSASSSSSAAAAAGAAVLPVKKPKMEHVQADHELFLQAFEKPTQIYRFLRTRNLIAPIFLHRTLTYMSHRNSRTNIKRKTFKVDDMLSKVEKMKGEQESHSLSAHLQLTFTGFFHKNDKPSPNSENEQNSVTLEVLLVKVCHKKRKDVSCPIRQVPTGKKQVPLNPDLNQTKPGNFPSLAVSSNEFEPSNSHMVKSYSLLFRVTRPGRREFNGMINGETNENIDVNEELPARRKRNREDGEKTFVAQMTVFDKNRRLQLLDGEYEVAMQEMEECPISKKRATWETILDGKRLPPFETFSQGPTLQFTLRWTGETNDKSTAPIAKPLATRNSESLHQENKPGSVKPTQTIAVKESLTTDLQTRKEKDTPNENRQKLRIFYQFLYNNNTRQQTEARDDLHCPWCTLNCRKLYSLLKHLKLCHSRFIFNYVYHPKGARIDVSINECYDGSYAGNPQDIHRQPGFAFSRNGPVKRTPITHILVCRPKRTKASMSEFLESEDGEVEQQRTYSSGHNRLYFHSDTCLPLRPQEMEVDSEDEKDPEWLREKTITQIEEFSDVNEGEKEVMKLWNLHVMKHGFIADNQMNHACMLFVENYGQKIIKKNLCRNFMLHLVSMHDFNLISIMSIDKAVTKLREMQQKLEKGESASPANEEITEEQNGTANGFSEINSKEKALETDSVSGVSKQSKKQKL
Test Method Notes: EED LC-MS assay
Assay type: biochemical
Applied Conditions: read-out: (b) IC50 EED LC-MS Qualified
Quantity Measured: IC50 (nM)

Some molecules with known IC50 results, for comparison:
CN1CCC(S(=O)(=O)c2ccc(-c3cnc(NCc4cccc5occc45)n4cnnc34)cc2)CC1 :: 21.6
Fc1ccc2c(c1CNc1ncc(-c3cnccn3)c3nncn13)CCO2 :: 8.2
CS(=O)(=O)c1ccc(-c2cnc(NCc3c(F)ccc4c3CCO4)n3cnnc23)cn1 :: 30.9
CN(C)CCc1ccc(-c2cnc(NCc3cccc4c3CCO4)n3cnnc23)cc1 :: 15.3
Cc1cc(-c2cnc(NCc3cccc4c3CCO4)n3cnnc23)cnc1N1CCCC1 :: 431
O=C1OCCN1c1ccc(-c2cnc(NCc3cccc4c3CCO4)n3cnnc23)cn1 :: 29.4

[I] OCc1ccc(-c2cnc(NCc3c(F)ccc4c3CCO4)n3cnnc23)cn1
[II] c1cc(CNc2ncc(-c3ccc(C4CC4)nc3)c3nncn23)c2c(c1)OCC2
[III] Cc1c(-c2cnc(NCc3cccc4c3CCO4)n3cnnc23)cnn1C
Sort the molecules on IC50; start with the lowest figure. When ranking, write the labels in the order the request describes. I, II, III

[A] Cc1nc(F)ccc1-c1cnc(NCc2c(F)ccc3c2CCO3)n2cnnc12
[B] Cc1nn(C)c(C)c1-c1cnc(NCc2cccc3c2CCO3)n2cnnc12
Form: Entry with minimum IC50 (choose one): A / B Pick one; state its label. A
(A: 13.9 nM, B: 37 nM)

[I] CCOc1ncc(-c2cnc(NCc3c(F)ccc4c3CCO4)n3cnnc23)c(C)n1
[II] O=C(c1ccc(-c2cnc(NCc3cccc4c3CCO4)n3cnnc23)cc1)N1CCNCC1
[III] COc1ncccc1-c1cnc(NCc2c(F)ccc3c2CCO3)n2cnnc12
[IV] O=S(=O)(c1ccc(-c2cnc(NCc3cccc4c3CCO4)n3cnnc23)cc1)C1CCNCC1
[V] CS(=O)(=O)c1ccc(-c2cnc(NCc3cccc4c3CCO4)n3cnnc23)cn1
Ordering: ascending IC50. Please write the labels in the order that was asked for. I, II, IV, V, III
